Target: T1, GDF11 (UniProt O95390 299-407)
T1 construct: also called BMP11
T1 sequence (looked up): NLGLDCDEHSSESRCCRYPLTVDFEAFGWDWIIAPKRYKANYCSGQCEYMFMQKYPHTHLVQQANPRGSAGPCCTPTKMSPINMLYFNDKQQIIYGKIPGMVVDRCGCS
Experiment: SPR (Biacore); receptor-Fc captured by anti-hFc antibody, ligand injected
pKd: −log10 of the molar value.
Lab note: anything with pKd at or over 10 counts as True; the rest go in False.

Ask: Does the reported pKd for ActRIIB(L79E 20-134)-hFc (Fc fusion) GRGEAETRECIYYNANWELERTNQSGLERCEGEQDKRLHCYASWRNSSGTIELVKKGCWEDDFNCYDRQECVATEENPQVYFCCCEGNFCNERFTHLPEAGGPEVTYEPPPTAPTGGGTHTCPPCPAPELLGGPSVFLFPPKPKDTLMISRTPEVTCVVVDVSHEDPEVKFNWYVDGVEVHNAKTKPREEQYNSTYRVVSVLTVLHQDWLNGKEYKCKVSNKALPVPIEKTISKAKGQPREPQVYTLPPSREEMTKNQVSLTCLVKGFYPSDIAVEWESNGQPENNYKTTPPVLDSDGSFFLYSKLTVDKSRWQQGNVFSCSVMHEALHNHYTQKSLSLSPGK fall at or above the 10 mark?
Reply: False

Ask: Does the reported pKd for ActRIIB(L79D 20-134)-hFc (Fc fusion) GRGEAETRECIYYNANWELERTNQSGLERCEGEQDKRLHCYASWRNSSGTIELVKKGCWDDDFNCYDRQECVATEENPQVYFCCCEGNFCNERFTHLPEAGGPEVTYEPPPTAPTGGGTHTCPPCPAPELLGGPSVFLFPPKPKDTLMISRTPEVTCVVVDVSHEDPEVKFNWYVDGVEVHNAKTKPREEQYNSTYRVVSVLTVLHQDWLNGKEYKCKVSNKALPVPIEKTISKAKGQPREPQVYTLPPSREEMTKNQVSLTCLVKGFYPSDIAVEWESNGQPENNYKTTPPVLDSDGSFFLYSKLTVDKSRWQQGNVFSCSVMHEALHNHYTQKSLSLSPGK fall at or above the 10 mark?
Reply: False

Ask: Does the reported pKd for ActRIIB(R64K 20-134)-hFc (Fc fusion) GRGEAETRECIYYNANWELERTNQSGLERCEGEQDKRLHCYASWKNSSGTIELVKKGCWLDDFNCYDRQECVATEENPQVYFCCCEGNFCNERFTHLPEAGGPEVTYEPPPTAPTGGGTHTCPPCPAPELLGGPSVFLFPPKPKDTLMISRTPEVTCVVVDVSHEDPEVKFNWYVDGVEVHNAKTKPREEQYNSTYRVVSVLTVLHQDWLNGKEYKCKVSNKALPVPIEKTISKAKGQPREPQVYTLPPSREEMTKNQVSLTCLVKGFYPSDIAVEWESNGQPENNYKTTPPVLDSDGSFFLYSKLTVDKSRWQQGNVFSCSVMHEALHNHYTQKSLSLSPGK fall at or above the 10 mark?
Reply: True
